# System: C57BL/6 mice given hANGPTL4-mFc
# Format: in vivo
# conditions: antibody 5 mg/kg s.c.; 24 h later hANGPTL4-mFc 25 μg/mouse i.v.; bled 30 min after; mean±SEM
# Description: In another set of experiments, selected anti-hANGPTL4 antibodies were tested for their ability to inhibit hANGPTL4-induced increase of triglyceride levels. Measurements of total cholesterol, LDL, NEFA-C and HDL were also made. […] Mice were bled at 30 min after hANGPTL4-mFc injection and lipid levels were determined by ADVIA® 1650 Chemistry System (Siemens). […] Levels of circulating anti-hANGPTL4 antibodies (Serum Ab) were also determined using a standard ELISA assay. […]

[
  {
    "molecule": "H1H291P: anti-hANGPTL4 antibody, HCVR/LCVR SEQ ID NOs 138/140 (antibody, V domains shown) VH: EVQLVESGGGLVQPGGSLRLSCAASGFTFSTYDMHWVRQGLGKGLEWVSAIGSAGDTYYPGSVKGRFTISRDNAKSSLFLHMNSLRAGDTALYYCARGDSRNYFVGDYFDYWGQGTLVTVSS VL: DIQMTQSPSTLSASIGDRVTITCRASQSISSWLAWYQQKPGKAPKVLIYKASSLEAGVPSRFSGSGSGTEFTLTISSLQPDDFASYYCQQYSSYSRTFGQGTKVEIK",
    "quantity.unit": "mg/dL",
    "NEFA-C": 1.11
  },
  {
    "molecule": "H1H638P: anti-hANGPTL4 antibody, HCVR/LCVR SEQ ID NOs 258/260 (antibody, V domains shown) VH: EVQLVESGGGLVQPGGSLRLSCVASGFTFSSYDMHWVRQVAGKGLEWVAAIGTAGDTYYPVSVKGRFTISRENAKNSLSLHMNSLRAGDTAVYYCARGDSRNYYVGDYFDYWGQGTLVTVSS VL: DIQMTQSPSTLSASVGDRVTITCRASQSISRWLAWYQQKPGKAPKVLIYKASSLKSGVPSRFSGSGSGTEFTLTISSLQSDDFATYYCQQYNSYSRTFGQGTKVEIK",
    "quantity.unit": "mg/dL",
    "NEFA-C": 1.06
  },
  {
    "molecule": "H1H284P: anti-hANGPTL4 antibody, hIgG1 isotype, HCVR/LCVR SEQ ID NOs 90/92 (antibody, V domains shown) VH: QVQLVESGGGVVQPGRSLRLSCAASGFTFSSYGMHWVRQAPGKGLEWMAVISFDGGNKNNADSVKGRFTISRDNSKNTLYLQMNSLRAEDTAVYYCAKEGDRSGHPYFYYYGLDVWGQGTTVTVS VL: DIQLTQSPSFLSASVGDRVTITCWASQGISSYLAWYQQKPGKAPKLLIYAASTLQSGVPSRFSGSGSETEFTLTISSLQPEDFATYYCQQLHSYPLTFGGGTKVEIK",
    "quantity.unit": "mg/dL",
    "NEFA-C": 0.99
  }
]
